Target: Progesterone receptor (Homo sapiens) (UniProt P06401)
Sequence (P06401 whole entry, looked up): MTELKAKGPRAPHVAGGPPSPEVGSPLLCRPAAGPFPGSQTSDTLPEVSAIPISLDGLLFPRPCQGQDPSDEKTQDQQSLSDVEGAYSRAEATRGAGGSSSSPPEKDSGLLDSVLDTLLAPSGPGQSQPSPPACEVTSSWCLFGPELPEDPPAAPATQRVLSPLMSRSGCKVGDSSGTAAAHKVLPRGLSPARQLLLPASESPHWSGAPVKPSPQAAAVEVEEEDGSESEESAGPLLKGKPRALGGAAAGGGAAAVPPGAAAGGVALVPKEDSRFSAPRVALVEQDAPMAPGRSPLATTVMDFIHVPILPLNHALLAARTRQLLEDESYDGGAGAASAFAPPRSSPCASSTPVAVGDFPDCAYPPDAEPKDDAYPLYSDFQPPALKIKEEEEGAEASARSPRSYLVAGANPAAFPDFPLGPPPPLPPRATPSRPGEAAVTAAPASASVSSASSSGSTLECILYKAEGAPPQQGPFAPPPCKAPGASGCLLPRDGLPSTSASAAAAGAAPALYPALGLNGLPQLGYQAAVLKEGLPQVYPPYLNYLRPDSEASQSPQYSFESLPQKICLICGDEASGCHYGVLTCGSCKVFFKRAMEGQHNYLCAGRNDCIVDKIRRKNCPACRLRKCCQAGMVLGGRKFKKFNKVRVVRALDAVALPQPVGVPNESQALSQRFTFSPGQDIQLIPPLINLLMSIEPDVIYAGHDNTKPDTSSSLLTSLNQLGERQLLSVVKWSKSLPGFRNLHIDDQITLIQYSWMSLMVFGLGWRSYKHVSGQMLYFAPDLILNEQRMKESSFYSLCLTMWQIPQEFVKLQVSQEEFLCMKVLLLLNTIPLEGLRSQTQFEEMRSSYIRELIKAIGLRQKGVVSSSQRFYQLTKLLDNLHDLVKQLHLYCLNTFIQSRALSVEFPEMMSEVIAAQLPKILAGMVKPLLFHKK
Assay: qHTS assay to identify small molecule agonists of the progesterone receptor (PR) signaling pathway (AID 1346784); further: nearly all actives have a fitted effect of over 30% in size
Details: PR-UAS-bla HEK293T, beta-lactamase FRET ratio, 16 h; series mostly up to 92.4 µM
Records with an inconclusive call do not appear. Calls of active or inactive are those of the source. The call rests on the fitted dose curve.
Field 'call' accepts 1 (active), 0 (inactive)

Known results for compounds:
COc1cc(NS(=O)(=O)c2ccc(N)cc2)ncn1 | 0
CC(C)CC(O)Cc1ccccc1 (configuration not stated) | 0

Query string: Identify the outcome logged in this assay for the compound shown: C/C=C(\C)C=O
Result string: 1

Query string: Test call for this compound, please: CCOC(=O)CN1CCCC1=O
Result string: 0

Query string: Could you check what this test reported for CC[C@@]1(c2ccccc2)NC(=O)N(C)C1=O ?
Result string: 0

Query string: Assay outcome for CCCCC(CC)CCC(CC(C)C)OS(=O)(=O)O (configuration not stated) : what was it?
Result string: 0

Query string: Name the outcome recorded for Cc1nc2ccc(Cl)cc2[nH]1 in the assay.
Result string: 0

Query string: What is the recorded call for this compound in the test? CCCCN(CCCC)CCCCCCN(CCCC)CCCC
Result string: 0

Query string: Identify the outcome logged in this assay for the compound shown: CCCCCCCCCCCBr
Result string: 0

Query string: Given O=CN1CCCCC1 , state the outcome it received in this test.
Result string: 0

Query string: Which outcome was entered for the compound CC(C)c1cc(C(C)C)cc(C(C)C)c1 in this test?
Result string: 0

Query string: Per the records of this test, what outcome belongs to Cc1ccc2cccnc2c1 ?
Result string: 0

Query string: Identify the outcome logged in this assay for the compound shown: CSC(=O)c1cccc2nnsc12
Result string: 0

Query string: Per the records of this test, what outcome belongs to Cc1cc(=O)oc2cc(O[C@@H]3SC[C@@H](O)[C@H](O)[C@H]3O)ccc12 ?
Result string: 0

* * *

Molecular target: Cytochrome P450 2C9 (Homo sapiens) (UniProt P11712)
Sequence (P11712 whole entry, looked up): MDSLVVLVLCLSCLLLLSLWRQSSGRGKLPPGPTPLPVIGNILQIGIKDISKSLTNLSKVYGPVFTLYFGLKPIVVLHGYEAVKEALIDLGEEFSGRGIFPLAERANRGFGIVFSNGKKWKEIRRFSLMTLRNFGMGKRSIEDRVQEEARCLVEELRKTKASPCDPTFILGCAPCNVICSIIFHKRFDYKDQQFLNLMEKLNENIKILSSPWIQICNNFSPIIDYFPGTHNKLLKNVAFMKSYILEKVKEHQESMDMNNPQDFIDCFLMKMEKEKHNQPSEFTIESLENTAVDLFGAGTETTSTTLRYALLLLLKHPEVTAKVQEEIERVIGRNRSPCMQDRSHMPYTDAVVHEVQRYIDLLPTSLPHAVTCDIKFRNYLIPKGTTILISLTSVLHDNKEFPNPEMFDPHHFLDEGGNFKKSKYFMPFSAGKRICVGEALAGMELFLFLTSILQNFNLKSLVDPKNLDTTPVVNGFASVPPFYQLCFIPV
Experiment: Cytochrome P450 Family 2 Subfamily C Member 9 (CYP2C9) small molecule antagonists: luciferase reporter qHTS assay (AID 1671198); further: nearly all actives have a fitted effect of over 50% in size
Settings: P450-Glo CYP2C9 enzyme assay, luciferin luminescence; series mostly up to 115 µM
Results filed as inconclusive are left out. Active and inactive are the calls of the source. Calls come from the whole dose curve; as a rule, active = well fitted inhibition curve with a large enough effect in the repeat runs; inconclusive = weak or mixed curves; inactive = no such curve, though single readings can be large or run the other way.
Choose the fitting class; nothing outside Y (active), N (inactive) is accepted.

Worked set:
C/C=C(\C)C=O | N
NCC1CCC(C(=O)Oc2ccc(CCC(=O)O)cc2)CC1 (stereo not drawn) | N
Cc1ccc2ccccc2n1 | N
CC(=O)c1ccc(O)c(C(N)=O)c1 | N
Cc1ccc(OC(=O)CC(C)C)cc1 | N
CC(C)(C)c1ccc(C(=O)CCCCl)cc1 | N

Query string: Entry O=C[C@@H](O)[C@H](O)[C@H](O)CO : call = ?
Result string: N

Query string: How did this test come out for CCCCCCCCC1CO1 (stereo not drawn) ?
Result string: N

Query string: # lookup: test call for CCCC[O][Al]([O]CCCC)[O]CCCC
Result string: N

Query string: What call does the record list for O=C1CCCc2c(O)cccc21 ?
Result string: N

Query string: Please state the recorded outcome for this compound: CCCCCCC(=O)c1ccccc1
Result string: N

Query string: Identify the outcome logged in this assay for the compound shown: CCCCC(CC)CCC(CC(C)C)OS(=O)(=O)O (stereo not drawn)
Result string: Y

Query string: Lab log entry: CNC(=O)c1c(I)c(NC(C)=O)c(I)c(C(=O)O)c1I — outcome as called in the assay?
Result string: N
